Each item that follows carries a reported TGI.
test system: SNB-19 CNS; experiment: NCI tumour cell line growth inhibition, 48 h

{"columns": ["COMPOUND", "TESTED TARGET", "TGI"],
 "data": [
  ["O=c1cc(N2CCCC2)[nH]c(=O)n1-c1cccc(C(F)(F)F)c1", "SNB-19 CNS", "> 100 µM"],
  ["O=C1COc2ccc([N+](=O)[O-])cc2C(=O)C1", "SNB-19 CNS", "> 10 µM"],
  ["C=CCSC1=N/C(=C\\c2ccccc2)C(=O)N1CC=C", "SNB-19 CNS", "> 100 µM"],
  ["c1ccc2c(c1)nc(NC1CCCC1)c1[nH]c(C3CCCC3)nc12", "SNB-19 CNS", "> 100 µM"],
  ["C=C(CC[C@@H](C(=O)O)[C@H]1[C@H](O)C[C@@]2(C)C3=CC[C@@H](C(=C)C)[C@](C)(CCC(=O)O)C3=CC[C@]12C)C(C)C", "SNB-19 CNS", "32.9 µM"],
  ["CN(C)Cc1cc(O)c(O)c(CN(C)C)c1", "SNB-19 CNS", "> 100 µM"],
  ["Fc1ccc(C2SCc3nc4ccccc4n32)cc1 (configuration not stated)", "SNB-19 CNS", "9.64 µM"]
]}
